Reference source: ChEMBL document CHEMBL3603826

Test: Intrinsic clearance in human liver microsomes assessed per mg protein at pH 7.4 at 0.5 uM in presence of NADPH regenerating system by LC-MS method
Assay type: ADME
Test parameters: read-out: CLH
Property: microsomal CLint at 0.5 µM (µL/min/mg)
API: value field is a number in µL/min/mg; no unit string.

Nc1ncc(-c2ccccc2)nc1C(=O)NC1CCCC1 ... 198
CCC(C)NC(=O)c1nc(-c2cccc(Cl)c2)cnc1N (stereo not drawn) ... 147
CCC(CC)NC(=O)c1nc(-c2ccc(F)c(C)c2)cnc1N ... 212
CCC(CC)NC(=O)c1nc(-c2ccc(F)cc2)cnc1N ... 84
CCC(CC)NC(=O)c1nc(-c2ccccc2)cnc1N ... 133
CCC(C)NC(=O)c1nc(-c2ccc(Cl)cc2)cnc1N (stereo not drawn) ... 48
CC(C)(C)NC(=O)c1nc(-c2ccccc2)cnc1N ... 246
Cc1cccc(-c2cnc(N)c(C(=O)NC3CCCC3)n2)c1 ... 266
CCC(CC)NC(=O)c1nc(-c2cccc(C)c2)cnc1N ... 194
CCC(C)NC(=O)c1nc(-c2ccc(F)cc2)cnc1N (stereo not drawn) ... 119

q: # get_value(readout='microsomal CLint at 0.5 µM', item= CCC(CC)NC(=O)c1nc(-c2ccc(F)cc2C#N)cnc1N )
a: 66

q: # get_value(readout='microsomal CLint at 0.5 µM', item= N#Cc1ccccc1-c1cnc(N)c(C(=O)NC2CCCC2)n1 )
a: 165

q: # get_value(readout='microsomal CLint at 0.5 µM', item= CCC(C)NC(=O)c1nc(-c2ccccc2C#N)cnc1N (stereo not drawn) )
a: 122

###

Measured selectivity ratio of individual entries
Test: Selectivity index, ratio of cytotoxic IC50 for HEK293 cells to EC50 for anti-parasitic activity against Trypanosoma brucei brucei 427 bloodstream parasites
Format: toxicity, cell-based
Test parameters: human, read-out: Ratio IC50/EC50
Give the value as a plain number.

CCC(C)NC(=O)c1nc(-c2cccc(Br)c2)cnc1N (stereo not given) ... 147
CCC(C)NC(=O)c1nc(-c2ccc(C)cc2)cnc1N (stereo not given) ... 22
Nc1ncc(-c2ccccc2)nc1C(=O)NCc1ccccc1 ... 32
CCC(CC)NC(=O)c1nc(-c2ccccc2C#N)cnc1N ... 488

q: # get_value(readout='selectivity ratio', item= CCC(C)NC(=O)c1nc(-c2ccccc2C(C)=O)cnc1N (stereo not given) )
a: 7.9

q: # get_value(readout='selectivity ratio', item= CCC(C)NC(=O)c1nc(-c2ccc(Cl)cc2)cnc1N (stereo not given) )
a: 122

q: # get_value(readout='selectivity ratio', item= CCC(CC)NC(=O)c1nc(-c2cc(C)cc(Cl)c2)cnc1N )
a: 50

q: # get_value(readout='selectivity ratio', item= CCC(CC)NC(=O)c1nc(-c2ccc(F)c(C)c2)cnc1N )
a: 423

q: # get_value(readout='selectivity ratio', item= CCC(C)NC(=O)c1nc(-c2ccc(C(C)=O)cc2)cnc1N (stereo not given) )
a: 8.8

q: # get_value(readout='selectivity ratio', item= N#Cc1cc(F)ccc1-c1cnc(N)c(C(=O)NC2CCCC2)n1 )
a: 1470

q: # get_value(readout='selectivity ratio', item= CCC(CC)NC(=O)c1nc(-c2cccc(C)c2)cnc1N )
a: 774

q: # get_value(readout='selectivity ratio', item= CCC(CC)NC(=O)c1nc(-c2ccc(F)cc2C#N)cnc1N )
a: 850

q: # get_value(readout='selectivity ratio', item= Nc1ncc(-c2ccc(F)c(Cl)c2)nc1C(=O)NC1CCCC1 )
a: 190

q: # get_value(readout='selectivity ratio', item= CCC(CC)NC(=O)c1nc(-c2cccc(C(F)(F)F)c2)cnc1N )
a: 80

q: # get_value(readout='selectivity ratio', item= CCC(CC)NC(=O)c1nc(-c2cc(C)cc(C)c2)cnc1N )
a: 173

###

Test: Partition coefficient, logD of the compound at pH 7.4 by HPLC method
Assay type: physicochemical
Test parameters: octanol/water
Property: logD
Give the value as a plain number.

q: # get_value(readout='logD', item= CCC(CC)NC(=O)c1nc(-c2ccccc2)cnc1N )
a: 4.3

q: # get_value(readout='logD', item= CCC(C)NC(=O)c1nc(-c2cccc(Cl)c2)cnc1N (stereo not given) )
a: 4.4

q: # get_value(readout='logD', item= CCC(C)NC(=O)c1nc(-c2ccc(Cl)cc2)cnc1N (stereo not given) )
a: 4.5

q: # get_value(readout='logD', item= Cc1cccc(-c2cnc(N)c(C(=O)NC3CCCC3)n2)c1 )
a: 4.6

q: # get_value(readout='logD', item= CCC(C)NC(=O)c1nc(-c2ccc(F)cc2)cnc1N (stereo not given) )
a: 4

###

Test: Selectivity index, ratio of cytotoxic IC50 for HEK293 cells to EC50 for anti-parasitic activity against Trypanosoma brucei brucei 427 bloodstream parasites
Assay type: toxicity, cell-based
Test parameters: human, read-out: Ratio IC50/EC50
Measured selectivity ratio of individual entries

Example compounds with recorded selectivity ratio:
CCC(C)NC(=O)c1nc(-c2ccc(C#N)cc2)cnc1N (stereo not drawn) ... > 30.4
CCC(C)NC(=O)c1nc(-c2cccc(OC)c2)cnc1N (stereo not drawn) ... > 201

q: # get_value(readout='selectivity ratio', item= CCC(C)NC(=O)c1nc(-c2ccccc2OC)cnc1N (stereo not drawn) )
a: > 15.4

###

Measured solubility kinetic of individual entries
Test: Kinetic solubility in pH 6.5 phosphate buffer by nephelometry
Assay type: physicochemical
Test parameters: read-out: Kinetic_solubility

Example compounds with recorded solubility kinetic:
CC(C)(C)NC(=O)c1nc(-c2ccccc2)cnc1N ... < 1.6 µg/mL
CCC(CC)NC(=O)c1nc(-c2ccc(F)c(C)c2)cnc1N ... < 1.6 µg/mL
CCC(C)NC(=O)c1nc(-c2cccc(Cl)c2)cnc1N (stereo unspecified) ... 1.6 µg/mL
Cc1cccc(-c2cnc(N)c(C(=O)NC3CCCC3)n2)c1 ... 3.1 µg/mL
CCC(C)NC(=O)c1nc(-c2ccccc2C#N)cnc1N (stereo unspecified) ... 1.6 µg/mL

Attention now shifts to the item below.
q: # get_value(readout='solubility kinetic', item= N#Cc1ccccc1-c1cnc(N)c(C(=O)NC2CCCC2)n1 )
a: < 1.6 µg/mL

###

Test: Selectivity index, ratio of cytotoxic IC50 for HEK293 cells to EC50 for anti-parasitic activity against Trypanosoma brucei brucei 427 bloodstream parasites
Type: toxicity, cell-based
Test parameters: human, read-out: Ratio IC50/EC50
Property: selectivity ratio
Give the value as a plain number.

Nc1ncc(-c2cccc(C(F)(F)F)c2)nc1C(=O)NC1CCCC1 ... 560

Attention now shifts to the item below.
q: # get_value(readout='selectivity ratio', item= CCC(C)NC(=O)c1nc(-c2cccc(Cl)c2)cnc1N (centres undefined) )
a: 175

###

Measured selectivity ratio of individual entries
Test: Selectivity index, ratio of cytotoxic IC50 for HEK293 cells to EC50 for anti-parasitic activity against Trypanosoma brucei brucei 427 bloodstream parasites
Assay type: toxicity, cell-based
Test parameters: human, read-out: Ratio IC50/EC50

Example compounds with recorded selectivity ratio:
CCC(C)NC(=O)c1nc(-c2ccccc2C)cnc1N (stereo not given) ... > 71
CCC(C)NC(=O)c1nc(-c2ccccc2)cnc1N (stereo not given) ... > 263
CCC(C)NC(=O)c1nc(-c2ccc(N)cc2)cnc1N (stereo not given) ... > 28.4
Nc1ncc(-c2ccccc2)nc1C(=O)NCCCCO ... > 11
CC(C)(C)NC(=O)c1nc(-c2ccccc2)cnc1N ... > 14

q: # get_value(readout='selectivity ratio', item= CCC(C)NC(=O)c1nc(-c2cccc(N)c2)cnc1N (stereo not given) )
a: > 77.8

q: # get_value(readout='selectivity ratio', item= Nc1ncc(-c2ccccc2)nc1C(=O)N1CCCC1 )
a: > 14

q: # get_value(readout='selectivity ratio', item= CCC(C)NC(=O)c1nc(-c2ccc(F)cc2)cnc1N (stereo not given) )
a: > 206

q: # get_value(readout='selectivity ratio', item= CCC(C)NC(=O)c1nc(-c2ccc([N+](=O)[O-])cc2)cnc1N (stereo not given) )
a: > 18.5

q: # get_value(readout='selectivity ratio', item= CCC(C)NC(=O)c1nc(-c2cccc(C)c2)cnc1N (stereo not given) )
a: > 495

###

Test: Selectivity index, ratio of cytotoxic IC50 for HEK293 cells to EC50 for anti-parasitic activity against Trypanosoma brucei brucei 427 bloodstream parasites
Type: toxicity, cell-based
Test parameters: human, read-out: Ratio IC50/EC50
Property: selectivity ratio
Give the value as a plain number.

CCC(CC)NC(=O)c1nc(-c2ccc(F)c(Cl)c2)cnc1N ... 190

q: # get_value(readout='selectivity ratio', item= Nc1ncc(-c2ccc(F)cc2)nc1C(=O)NC1CCCC1 )
a: 590

q: # get_value(readout='selectivity ratio', item= CCC(CC)NC(=O)c1nc(-c2cccc(Cl)c2)cnc1N )
a: 110
